# Test system: SR leukemia
# METHOD: NCI tumour cell line growth inhibition, 48 h; in the data active = GI50 below about 0.43 µM; inactive = the rest
Outcomes: 1 (active), 0 (inactive)

>>> label("[pH]1p2[pH]p3p1p3[pH]2.c1cc[c]([Ge]([c]2ccccc2)[c]2ccccc2)cc1.c1cc[c]([Ge]([c]2ccccc2)[c]2ccccc2)cc1.c1cc[c]([Ge]([c]2ccccc2)[c]2ccccc2)cc1")
0
>>> label("Cn1ccc(S(=O)(=O)N2CCC[C@H](Nc3nccc(-c4c(-c5cccc(O)c5)nc5occn45)n3)C2)n1")
0
>>> label("O=C(NNC1=NS(=O)(=O)c2ccccc2N1c1ccccc1)c1cnccn1")
0
>>> label("COC(=O)COc1ccccc1/C=C1/N=C(c2ccccc2)N(c2c(C)n(C)n(-c3ccccc3)c2=O)C1=O")
0
>>> label("CN(C)C/C=C/C(=O)Nc1ccc(C(=O)Nc2cccc(Nc3ncc(Cl)c(-c4c[nH]c5ccccc45)n3)c2)cc1")
1
>>> label("Cc1ncnc2c1ccn2[C@@H]1C[C@H](Oc2cc(C(F)F)c(F)c3c2CNCC3)[C@@H](O)[C@H]1O")
0
>>> label("c1ccc(C2=Nc3ccccc3N3CNN=C23)cc1")
0
>>> label("Cc1cc(NS(=O)(=O)c2ccc(-c3cnc(C4CC4)o3)cc2)ccc1Cl")
1
>>> label("CC(C)(Oc1cccc(N2CCC[C@@H](C(=O)N(Cc3ccc(-c4cn[nH]c4)cc3)C3CC3)C2)c1)C(=O)N1CCNCC1")
0
>>> label("CC(C)N(CCNc1nc(C(Cl)(Cl)Cl)nc2cc(Cl)ccc12)C(C)C")
0
>>> label("C=C1CC[C@@](C)(c2cc(Br)c(C)cc2OC(C)=O)[C@H]1C")
0
>>> label("CCN1C[C@@H](C)n2c(c(O)c3c(=O)n(Cc4ccc(F)c(Cl)c4)nc(C(=O)NC)c32)C1=O")
0
>>> label("N=C1C(c2nc3ccccc3c(=O)[nH]2)=C(O)CN1c1cccc(Cl)c1")
1
>>> label("Nc1ncc(-c2ccc3ncnc(N4CCc5cc(F)c(Cl)cc54)c3c2)cc1C=O")
0
